Source of measurements: patent US20240092919A1

Would you kindly list koff for each of these binders?
Target: T1, Cynomolgus TCR(AEA41865/AEA41866)-zipper protein (cynomolgus monkey)
T1 construct: also called cyTCR-zipper protein; cynoTCR zipper
T1 TCR alpha: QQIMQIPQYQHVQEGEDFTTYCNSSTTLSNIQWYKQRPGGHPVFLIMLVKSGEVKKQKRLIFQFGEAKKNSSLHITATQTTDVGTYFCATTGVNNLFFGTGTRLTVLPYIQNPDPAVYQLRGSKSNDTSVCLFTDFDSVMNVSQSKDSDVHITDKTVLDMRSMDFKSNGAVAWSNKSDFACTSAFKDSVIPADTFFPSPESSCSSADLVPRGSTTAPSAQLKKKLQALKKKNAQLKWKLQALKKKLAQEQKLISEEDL
T1 TCR beta: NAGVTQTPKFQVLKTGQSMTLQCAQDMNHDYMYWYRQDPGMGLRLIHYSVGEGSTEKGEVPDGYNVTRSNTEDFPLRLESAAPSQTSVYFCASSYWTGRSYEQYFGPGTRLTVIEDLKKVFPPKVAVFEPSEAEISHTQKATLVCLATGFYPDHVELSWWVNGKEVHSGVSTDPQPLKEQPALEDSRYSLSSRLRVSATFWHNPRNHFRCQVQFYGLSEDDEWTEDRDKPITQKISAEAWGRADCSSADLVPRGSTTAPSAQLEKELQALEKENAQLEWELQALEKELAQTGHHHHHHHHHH
Assay: SPR ProteOn off-rate screen
Give bare numbers, in s⁻¹.

T017000173 (VHH) VHH: EVQLVESGGGVVQPGGSLRLSCVASGDVHKINVLGWYRQAPGKEREKVAHISIGDQTDYADSAKGRFTISRDESKNMVYLQMNSLRPEDTALYFCRAFSRIYPYDYWGQGTLVTVSS; 0.00903

Challenge: Can you look up the measured koff of T017000200 (VHH) VHH: EVQLVESGGGVVQPGGSLRLSCVASGDVHKINFLRWYRQAPGKEREKVAHISIGDQTDYADSAKGRFTISRDESKNMVYLQMNSLRPEDTALYFCRAFSRIYPYDYWGQGTLVTVSS for me?
Response given: 0.058
